MEASUREMENT NAME: melting point

COMPOUND: Cc1c(NC(=O)c2ccc(-c3ccc(F)cc3F)cc2F)ccc2cc(CN3CCCC3)cnc12
melting point: 172 to 173 °C
--
COMPOUND: Cc1c(-c2ccc(C(C)(C)C)cc2)[nH]c2nccnc12
melting point: 213 to 214 °C

# input compound: OCC1CCC(N2CCC(=C3c4ccc(F)cc4Sc4ccc(C(F)(F)F)cc43)CC2)CC1 (stereo not given) ; wanted: its melting point
208 to 211 °C

Could you tell me which melting point is on file for "CSC(=S)C1(c2cccc(C)n2)SCCCS1" ?
92 °C

Request the reported melting point associated with NC(CCc1ccccc1CP(=O)(O)O)C(=O)O (stereo not given)
247 to 249 °C

Which melting point value belongs to "OC1(c2cc(F)cc(CC#COC#CCc3cc(F)cc(C4(O)CCOCC4)c3)c2)CCOCC1" ?
120 to 122 °C

Record request: melting point value, item "c1ccc(COc2ccc3nc(-c4ccc(C56CC7CC(CC(C7)C5)C6)c(OCc5ccccc5)c4)[nH]c3c2)cc1"
203 °C

I'd like to know its melting point. The compound in question is CCCCCCCCCCCCSC(=S)SC(C)(C#N)CCC(=O)O (stereo not given)
58 to 59 °C

// returns reported melting point for input "CCOC(=O)c1ccc2c(c1)N(CCN(C)C)C(=O)c1cc(C(C)C)cc(C(C)C)c1O2"
97 to 98 °C

Data request, read-out melting point, for "O=c1c2ccccc2oc2cccnc12"
184 to 185 °C

###

Property: melting point; scope: individual molecules

Observe how each entry below is paired with its result.
MOLECULE: O=C1CCC(Nc2nccc(-n3ncc4ccccc43)n2)CC1
melting point: 212 to 213 °C
//
MOLECULE: CCOC(=O)c1n[nH]c(C(=O)OCC)c1C(O)c1ccc(Cl)cc1[N+](=O)[O-] (stereo unspecified)
melting point: 60 °C
//
MOLECULE: COc1cccc2c1CC(CC(=O)O)C1(C2)OCCO1 (stereo unspecified)
melting point: 129 to 130 °C
//
MOLECULE: CCOC(=O)c1ncn2c1[C@@H]1CCN1C(=O)c1c-2ccc(F)c1F
melting point: 234 to 236 °C
//
MOLECULE: Cn1cnc2nc(-c3ccc(C#N)cc3)nn2c1=S
melting point: > 300 °C

For the molecule shown here, Cc1c(N2CC(F)C(C3(N)CCC3)C2)c(F)c(N)c2c(=O)c(C(=O)O)cn(C3CC3F)c12 (stereo unspecified) , give the reported melting point.
177 to 184 °C

Using the record for "Nc1cc(-c2ccccc2)n(-c2ccc(S(N)(=O)=O)cc2)n1" , report its melting point.
286 to 290 °C

GET /values?readout=melting point&item= CNC(Cc1ccccc1NC(=O)C(C)(C)C)c1ccsc1 (stereo unspecified)
81 to 84 °C

Which melting point is listed for "NC(=O)N(O)Cc1sccc1Sc1ccc(F)cc1" ?
101 to 103 °C

I have this molecule here, "Cc1cc(C=O)cc(C)c1N" , and I need its recorded melting point.
75 to 76 °C

###

MEASUREMENT NAME: melting point

Before answering, review these 5 worked examples.
COMPOUND: ICC(c1ccccc1)c1ccccc1
RECORDED MEASUREMENT: 76 to 78 °C
//
COMPOUND: CCn1ncc(C(=O)c2ccc(S(C)(=O)=O)cc2Cl)c1O
RECORDED MEASUREMENT: 172 to 175 °C
//
COMPOUND: CSc1ccc(C=C2c3ccc(F)cc3CC2C)cc1 (stereo not given)
RECORDED MEASUREMENT: 67 to 70 °C
//
COMPOUND: O=C(O)c1ccc(Cn2cc(C3c4ccc(C(F)(F)F)cc4C=Cc4cc(C(F)(F)F)ccc43)c(=O)[nH]c2=O)o1
RECORDED MEASUREMENT: 203 to 206 °C
//
COMPOUND: COc1ccc(C(=O)Nc2c(F)cccc2F)cc1OC1CCCC1
RECORDED MEASUREMENT: 158 to 160 °C

Can you share its melting point? I mean this compound: "CC(C)c1ccc(-c2ncc(-c3cccc(C(=O)O)c3)s2)cc1"
237 to 239 °C

Need melting point, item "CNc1nc(-c2cccc(NC(=O)c3ccccc3OC)c2)c2cc(OC)c(OC)cc2n1"
194 to 196 °C

I am curious: what melting point value has been reported for "CCCCCCCCCCCCCCCCCCS(=O)(=O)c1cc2ccccc2c(N)c1O" ?
84 to 88 °C

Recorded melting point of "Nc1nc2cc(Cl)c(Cl)c(Cl)c2[nH]1" , please.
255 to 258 °C

# input compound: "O=C(O)CCc1conc1-c1ccc(C(F)(F)F)cc1" ; wanted: its melting point
173 to 174 °C

###

MEASUREMENT NAME: melting point

MOLECULE: CC(C)(C)OC(=O)N1CCN(c2cccc(Cl)c2C=O)CC1
RECORDED MEASUREMENT: 100 to 103 °C
//
MOLECULE: Cc1nc(N2CCCCC2)ccc1N1CCCn2c1nc1c(Cl)ccc(C(OC(F)F)C(F)(F)F)c12 (configuration not stated)
RECORDED MEASUREMENT: 164 to 167 °C
//
MOLECULE: CCCCCCCCCCC/C=C\c1c[nH]c(C(=O)OC)c1
RECORDED MEASUREMENT: 51 to 52 °C
//
MOLECULE: CCN1CCC(C(=O)NO)(S(=O)(=O)c2ccc(OC)cc2)CC1
RECORDED MEASUREMENT: 85 °C

Please give the measured melting point for this molecule: "N#Cc1ccc(-c2ccccc2F)c(F)c1"
78 to 79 °C

Looking for the measured melting point of "CCSc1sc(C#N)c(N(C)C(C)=O)c1C#N" , can you help?
68 °C

Look up melting point for this molecule: "Cc1ccc(S(=O)(=O)N2CCC(c3cccc4c3CCCC(C(=O)Nc3ccc(CN(C)C5CCOCC5)cc3)=C4)CC2)cc1"
175 to 176 °C

Given the entry "Cc1oncc1C(=O)Nc1ccc(-n2nc(C(F)(F)F)cc2C2CC2)c(F)c1" , report its measured melting point.
125 to 128 °C

Requested field: melting point. Item: c1cc2c(c(OCC3CO3)c1)CC1OC1C2 (configuration not stated)
85 to 87 °C

Give the measured melting point of "C/C(=C\c1ccc(C(=O)O)cc1)c1ccc(O)c(C(C)(C)C)c1" .
209 °C

GET /values?readout=melting point&item= "O=C(c1ccc(F)cc1)C1CCN(CCCn2c(=O)[nH]c3cc(Cl)ccc32)CC1"
164 °C

# melting point lookup, item "CC(C)Nc1c(C#N)cnn1-c1ccc(Cl)c(Cl)c1Cl"
141 to 142 °C

Need melting point of "CC(C)(OCc1nn(Cc2ccccc2)c2ccccc12)C(=O)NN" , thanks.
92 to 93 °C

Would you kindly share the measured melting point for "Clc1ccc(NN=Cc2cccs2)cc1" ?
137 °C

Give its melting point value. Item: CC(Cc1ccc(C2=NNC(=O)CC2)cc1)NCC(O)c1cccc(Cl)c1 (configuration not stated)
49 to 50 °C

# query: melting point of entry "CC(=O)O[C@H]1CC[C@H](CCCCCCC(=O)O)CC1"
66 to 68 °C

Name the recorded melting point for "CC(C)N1CC(c2nnc(Cc3ccc(F)cc3)o2)=C(O)C1=O" .
204 to 206 °C

What does the record list as melting point for "CCCCCCCCCCCCc1cc2ccc(C(=O)OCC)cc2[nH]1" ?
83 to 86 °C

I am curious: what melting point value has been reported for CC(C)C1COCc2nc3c(N)nc4cc(OCC(=O)N5CCOCC5)ccc4c3n21 (configuration not stated) ?
137 to 139 °C

Please report the recorded melting point for "COc1cc(CSc2ccc(O)cc2)cc(OC)c1OC" .
139 to 140 °C

Please give the measured melting point for this molecule: "O=C(c1ccc(F)cn1)N1CCC[C@H](c2noc(-c3ccc(F)cc3)n2)C1"
93 to 95 °C

Can you look up the measured melting point of CSC(CC(=O)O)c1ccncc1 (configuration not stated) for me?
187 to 189 °C

###

MEASUREMENT NAME: melting point

Below, 2 molecules whose answers are already recorded.
MOLECULE: C=CCN1C(=O)C(F)N=C(c2ccccc2)c2cc(Cl)ccc21 (stereo not given)
melting point: 138 to 140 °C

MOLECULE: CN(C)C(=O)N1C[C@@H](O)[C@H](Oc2ccc(Cl)cc2)C1 (relative stereo)
melting point: 137 to 142 °C

Sample "O=C(O)C=Cc1ccc(NC(=O)CCCCCNC(=O)OCc2ccccc2)cc1" — what was its melting point?
142 to 144 °C

I'd like to know its melting point. The molecule in question is CCCC1=C(C(=O)OCC)C(c2cccc3nsnc23)c2c[nH]nc2N1 (stereo not given)
180 °C

Tell me the measured melting point of "N#Cc1cc(NC(=O)c2cc3ccccc3s2)ccc1N(CCO)CCO" , please.
163 to 168 °C

Quick one: melting point for "CS(=O)(=O)CC(=O)N[C@H]1CC[C@H](CCN2CCN(c3nccc4ccoc34)CC2)CC1" ?
182 °C

Would you kindly share the measured melting point for N#Cc1nc(N)c2ncn(C3OC(CO)C(O)C3O)c2n1 (stereo not given) ?
195 to 197 °C

For "COC(=O)[C@H](CS)NC(=O)[C@@H]1CCC(=S)N1" , what is its reported melting point?
177 to 178 °C
